# target or system: human CGRP receptor (human CRLR / human RAMP1 heterodimer) (human, UniProt Q16602 23-461; O60894 27-148)
# Sequence (Q16602 23-461 limits assumed, chain 1 of 2): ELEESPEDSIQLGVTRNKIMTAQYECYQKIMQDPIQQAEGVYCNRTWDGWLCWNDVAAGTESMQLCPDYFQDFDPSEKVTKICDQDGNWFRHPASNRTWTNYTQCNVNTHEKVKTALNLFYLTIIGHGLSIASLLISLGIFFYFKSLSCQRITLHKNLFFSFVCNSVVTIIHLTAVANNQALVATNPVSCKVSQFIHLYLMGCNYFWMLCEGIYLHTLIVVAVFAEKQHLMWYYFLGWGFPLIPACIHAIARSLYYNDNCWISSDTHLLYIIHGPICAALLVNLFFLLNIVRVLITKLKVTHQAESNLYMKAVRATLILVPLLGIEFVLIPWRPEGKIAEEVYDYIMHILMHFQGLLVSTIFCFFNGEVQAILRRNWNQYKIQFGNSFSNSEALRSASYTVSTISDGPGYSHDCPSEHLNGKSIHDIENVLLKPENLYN
# Sequence (O60894 27-148 limits assumed, chain 2 of 2): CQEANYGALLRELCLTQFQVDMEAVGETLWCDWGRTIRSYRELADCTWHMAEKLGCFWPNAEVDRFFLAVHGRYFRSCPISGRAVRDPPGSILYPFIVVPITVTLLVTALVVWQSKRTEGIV
# run description: cell-based or functional assay
readout name: Run 1 IC50 (nM), cell-based cAMP assay, SK-N-MC cells, 3 nM human α-CGRP
# number only, unit nM dropped from output

[[record]]
binder = "4E4.2 parental antibody, bivalent monoclonal antibody (antibody, human IgG1, lambda, N297G, V domains shown) VH: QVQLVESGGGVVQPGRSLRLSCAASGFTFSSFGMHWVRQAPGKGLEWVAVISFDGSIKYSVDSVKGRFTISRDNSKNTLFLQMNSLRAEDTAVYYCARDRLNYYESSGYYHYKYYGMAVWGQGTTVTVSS VL: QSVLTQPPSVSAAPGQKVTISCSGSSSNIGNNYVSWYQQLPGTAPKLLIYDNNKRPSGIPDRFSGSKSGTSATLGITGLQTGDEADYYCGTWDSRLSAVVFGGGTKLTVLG"
uom = "nM"
result = 0.34


Then there is this binder:
(Q) I have this binder here, anti-CGRP receptor variant antibody 06, bivalent monoclonal antibody (antibody, human IgG1, lambda, N297G, V domains shown) VH: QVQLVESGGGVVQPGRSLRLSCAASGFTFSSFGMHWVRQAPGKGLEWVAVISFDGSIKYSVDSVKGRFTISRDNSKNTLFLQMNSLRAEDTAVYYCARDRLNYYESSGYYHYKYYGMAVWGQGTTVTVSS VL: QSVLTQPPSVSAAPGQKVTISCSGSYSNIGRKSVSWYQQLPGTAPKLLIYDNNKRPSGIPDRFSGSKSGTSATLGITGLQTGDEADYYCGTWDSRLSAVVFGGGTKLTVLG , and I need its recorded Run 1 IC50 (nM), cell-based cAMP assay, SK-N-MC cells, 3 nM human α-CGRP.
(A) 0.14
